assay_notes: Nude mouse PK study with adagrasib and DCC-3116 treatment
Assay type: in vivo
measurement_setup: female, athymic nude, mouse, plasma, po, 25 mg/kg, adagrasib in combination with 25 mg/kg DCC-3116 (second statement); read-out: adagrasib Cmax in plasma (average)
property_label: Cmax
Reply with the number, then its unit.

In: State its Cmax: C=C(F)C(=O)N1CCN(c2nc(OC[C@@H]3CCCN3C)nc3c2CCN(c2cccc4cccc(Cl)c24)C3)C[C@@H]1CC#N [adagrasib, reference compound]
Out: 2060 ng/mL

###

assay_notes: Phase 1/2 first-in-human study, DCC-3116 monotherapy dose escalation: plasma pharmacokinetics
Type: in vivo
measurement_setup: human, plasma, oral, 100 mg, Cohort A2, 100 mg BID, Cycle 1 Day 15; predose concentration imputed to 12 hours; read-out: AUC0-12 h (GM [CV %])
property_label: AUC(0-t) (ng·h/mL)
# number only, unit ng·h/mL dropped from output

In: State its AUC(0-t): `CCc1cc(N2CCN(C)CC2)ccc1Nc1ncc(C(F)(F)F)c(NCCCN2CCOCCC2=O)n1`
Out: 9840
